- Tested on: M. tuberculosis wild type plus biotin, growth inhibition
- ASSAY DETAILS: bioa inhibitor dry powder, mtb growth inhibition, wild type strain with biotin (AID 743071)
Calls of active or inactive are those of the source. No rule for the calls is given here.
Log the outcome using a class from active, inactive

In [3]: df
Out[3]:
                                   compound  class_assignment
0  Cc1ccc(-c2cc(C(F)(F)F)n3nc(C(=O)Nc4cccnc4)cc3n2)cc1          inactive
1          O=C(Nc1ccccc1)N1CCN(c2ccccc2)CC1            active
2    O=C(c1ccc2c(c1)OCO2)N1CCN(c2ccccc2)CC1            active
3  O=C(Nc1cccnc1)c1cnn2c(C(F)F)cc(C3CC3)nc12          inactive

Ask: What was the test verdict on `CC(=O)c1ccc(N2CCN(C(=O)c3cccnc3)CC2)cc1` ?
Reply: inactive

Ask: What was the test verdict on `Cc1ccc(/C=C(\CCC(=O)O)c2nc3ccccc3s2)cc1` ?
Reply: active

Ask: What was the test verdict on `O=C(c1ccc2c(c1)OCO2)N1CCN(c2ccc(Cl)cc2)CC1` ?
Reply: active

====

- System: M. tuberculosis wild type plus biotin, growth inhibition
- ASSAY DETAILS: bioa inhibitor dry powder, mtb growth inhibition, wild type strain with biotin (AID 743071)
Calls of active or inactive are those of the source. The rule behind the calls is not given here.
Here the recorded IC50 is given for each entry.

Lab note: compound `Cc1cc(C)n2nc(C(=O)Nc3cccnc3)cc2n1` tested on M. tuberculosis wild type plus biotin, growth inhibition; recorded IC50 was > 50 µM (inactive)

Lab note: compound `O=C(Nc1cccnc1)N1CCN(c2ccccc2)CC1` tested on M. tuberculosis wild type plus biotin, growth inhibition; recorded IC50 was > 50 µM (inactive)

Lab note: compound `COc1ccc(N2CCN(C(=O)c3ccc4c(c3)OCO4)CC2)cc1` tested on M. tuberculosis wild type plus biotin, growth inhibition; recorded IC50 was 10.1 µM

Lab note: compound `Cc1nc2cc(NC(=O)N3CCN(c4ccccc4)CC3)ccc2o1` tested on M. tuberculosis wild type plus biotin, growth inhibition; recorded IC50 was 50 µM

Lab note: compound `COc1ccc(C(=O)N2CCN(c3ccc(C(C)=O)cc3)CC2)cc1` tested on M. tuberculosis wild type plus biotin, growth inhibition; recorded IC50 was 81.4 µM (inactive)

Lab note: compound `O=C(Nc1ccc2[nH]ccc2c1)N1CCN(c2ccccc2)CC1` tested on M. tuberculosis wild type plus biotin, growth inhibition; recorded IC50 was 8.5 µM

====

Here the recorded IC50 is given for each entry.
- Tested on: M. tuberculosis wild type plus biotin, growth inhibition
- ASSAY DETAILS: bioa inhibitor dry powder, mtb growth inhibition, wild type strain with biotin (AID 743071)
The source made the active and inactive calls. The rule behind the calls is not given here.

Recorded IC50, per entry:
>>> df
                                        smi  result_type      value_reported
0  O=C(Nc1ccncc1)c1cc2nc(C3CC3)cc(C(F)F)n2n1         IC50  > 50 µM (inactive)
1               O=C(Nc1ccc2snnc2c1)N1CCOCC1         IC50  > 50 µM (inactive)

Sample `COc1ccc(NC(=O)N2CCN(c3ccccc3)CC2)cc1` ; IC50 observed: > 50 µM (inactive)

====

- Tested on: M. tuberculosis wild type plus biotin, growth inhibition
- ASSAY DETAILS: bioa inhibitor dry powder, mtb growth inhibition, wild type strain with biotin (AID 743071)
Activity calls are given as the source filed them. The rule behind the calls is not given here.
Log the outcome using a class from true = active, false = inactive

Example results:
>>> print(df.to_string())
                                        smi  class_assignment
0  O=C(COc1ccc2ccc(=O)oc2c1)N1CCN(c2ccc(F)cc2)CC1             false
1  O=C(Nc1cccnc1)c1cnn2c(C(F)(F)F)cc(-c3ccccc3)nc12             false
2   O=C(c1ccc2c(c1)OCO2)N1CCN(Cc2ccccc2)CC1             false
3   CCN(CC)c1ccc2cc(C(=O)c3cccs3)c(=O)oc2c1              true
4  O=C(Nc1cccnc1)c1cc2nc(-c3cccs3)cc(C(F)(F)F)n2n1             false
5  O=C(O)CC/C(=C\c1ccc([N+](=O)[O-])cc1)c1nc2ccccc2s1              true

Ask: What was the test verdict on `CC(=O)c1ccc(N2CCN(C(=O)c3ccc(Cl)cc3)CC2)cc1` ?
Reply: false

Ask: What was the test verdict on `O=C(Nc1ccc(Cl)c(-c2nc3ccccc3[nH]2)c1)c1cccnc1` ?
Reply: true

Ask: What was the test verdict on `CC(=O)c1ccc(N2CCN(C(=O)c3ccc(C)cc3)CC2)cc1` ?
Reply: false

Ask: What was the test verdict on `CC(=O)c1ccc(N2CCN(C(=O)c3cccc(Cl)c3)CC2)cc1` ?
Reply: false

Ask: What was the test verdict on `Cc1cccc(/C=C(\CCC(=O)O)c2nc3ccccc3s2)c1` ?
Reply: true

====

- Test system: M. tuberculosis wild type plus biotin, growth inhibition
- ASSAY DETAILS: bioa inhibitor dry powder, mtb growth inhibition, wild type strain with biotin (AID 743071)
Activity calls are given as the source filed them. No rule for the calls is given here.
Here the recorded IC50 is given for each entry.

Recorded IC50, per entry:
>>> print(df.to_string())
                                        smi      value_reported
0  O=C(c1ccc2c(c1)OCO2)N1CCN(c2ccc(F)cc2)CC1             18.9 µM
1       O=C(Nc1cccc(F)c1)N1CCN(c2ccccc2)CC1              7.9 µM
2   CC(=O)c1ccc(N2CCN(C(=O)c3ccccc3)CC2)cc1  > 50 µM (inactive)
3  Cc1ccc(/C=C(\CC(=O)O)c2nc3ccccc3s2)cc1[N+](=O)[O-]              7.2 µM
4  CCc1ccc(N2CCN(C(=O)c3ccc4c(c3)OCO4)CC2)cc1              8.7 µM
5  CC(=O)c1ccc(N2CCN(C(=O)c3ccc4c(c3)OCO4)CC2)cc1  > 50 µM (inactive)

Sample `Cc1nc2ccc(NC(=O)N3CCN(c4ccccc4)CC3)cc2s1` ; IC50 observed: 1.9 µM

Sample `COc1cccc(NC(=O)CCC2CCN(C(=O)c3ccc(C(C)=O)s3)CC2)c1` ; IC50 observed: > 50 µM (inactive)

Sample `Cc1ccc(NC(=O)N2CCN(c3ccccc3)CC2)cc1` ; IC50 observed: 8 µM

Sample `CC(=O)c1ccc(N2CCN(C(=O)c3ccc(Br)cc3)CC2)c(F)c1` ; IC50 observed: > 50 µM (inactive)

Sample `COc1ccc(-c2cc(C(F)(F)F)n3nc(C(=O)Nc4cccnc4)cc3n2)cc1` ; IC50 observed: > 50 µM (inactive)

====

- Test system: M. tuberculosis wild type plus biotin, growth inhibition
- ASSAY DETAILS: bioa inhibitor dry powder, mtb growth inhibition, wild type strain with biotin (AID 743071)
The source made the active and inactive calls. How the calls were made is not given here.
Log the outcome using a class from active, inactive

Example results:
In [3]: df
Out[3]:
                                        smi  class_assignment
0               O=C(Nc1ccc2snnc2c1)N1CCCCC1            active
1     COc1cc(/C=C/C(=O)Nc2cccnc2)cc(OC)c1OC          inactive
2  Cc1ccc(/C=C(\CCC(=O)O)c2nc3ccccc3s2)cc1[N+](=O)[O-]            active
3       O=C(Nc1ccc(F)cc1)N1CCN(c2ccccc2)CC1            active
4      COc1cccc(NC(=O)N2CCN(c3ccccc3)CC2)c1            active

Ask: What was the test verdict on `Cc1cc(C)n2nc(C(=O)Nc3cccnc3)nc2n1` ?
Reply: inactive

====

- System: M. tuberculosis wild type plus biotin, growth inhibition
- ASSAY DETAILS: bioa inhibitor dry powder, mtb growth inhibition, wild type strain with biotin (AID 743071)
Calls of active or inactive are those of the source. How the calls were made is not given here.
Here the recorded IC50 is given for each entry.

Recorded IC50, per entry:
>>> df
                                   molecule  result_type      value_reported
0     CCOC(=O)N1CCN(C(=O)Nc2ccc3snnc3c2)CC1         IC50               50 µM
1  CC(=O)c1ccc(N2CCN(C(=O)c3ccc(F)cc3)CC2)cc1         IC50  > 50 µM (inactive)
2  CC(C)(C)c1ccc(C(=O)N2CCN(c3ccc4c(c3)OCO4)CC2)cc1         IC50               15 µM
3  O=C(O)CC/C(=C\c1ccccc1[N+](=O)[O-])c1nc2ccccc2s1         IC50  > 50 µM (inactive)
4  CC(=O)c1ccc(N2CCN(Cc3ccc4c(c3)OCO4)CC2)cc1         IC50               50 µM
5  CC(=O)c1ccc(N2CCN(C(=O)c3ccc4c(c3)OCCO4)CC2)cc1         IC50  > 50 µM (inactive)
6      O=C(Nc1cccc(Cl)c1)N1CCN(c2ccccc2)CC1         IC50              5.5 µM
7  COc1cccc(C(=O)N2CCN(c3ccc(C(C)=O)cc3)CC2)c1         IC50  > 50 µM (inactive)
8  CC(=O)c1ccc(N2CCN(C(=O)c3ccc4ncsc4c3)CC2)cc1         IC50  > 50 µM (inactive)
9     Cc1ccccc1/C=C(\CCC(=O)O)c1nc2ccccc2s1         IC50              8.4 µM

Sample `O=C(Nc1ccc2snnc2c1)N1CCN(c2ccccc2)CC1` ; IC50 observed: > 50 µM (inactive)

Sample `O=C(Nc1ccc(Cl)cc1)c1cc2nc(C3CC3)cc(C(F)(F)F)n2n1` ; IC50 observed: > 50 µM (inactive)

Sample `CC(=O)c1ccc(N2CCN(C(=O)c3cccc(F)c3)CC2)cc1` ; IC50 observed: > 50 µM (inactive)

Sample COC(=O)c1c(C(=O)OC)c(-c2cccc(F)c2)n2c1CS(=O)C2 (stereo unspecified) ; IC50 observed: > 50 µM (inactive)

Sample `CCc1ccc(C(=O)N2CCN(Cc3ccc4c(c3)OCO4)CC2)cc1` ; IC50 observed: 8.8 µM

Sample `Cc1ccc(/C=C(\CCCC(=O)O)c2nc3ccccc3s2)cc1[N+](=O)[O-]` ; IC50 observed: 9.6 µM
